System: biotinyl-Met-oxazolone
assay: self-aminoacylation, catalytic enhancement (BMO) (fold over background); higher = more active; k-Seq, kA / k0A0; sequences stand for … in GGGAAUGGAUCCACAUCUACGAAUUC…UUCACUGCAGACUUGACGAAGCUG
Variants at the floor of the assay were thinned out.
Param threshold (2) applies to self-aminoacylation; output Fulfilled when value >= threshold, Not fulfilled when value < threshold.

Req: Given AUUCACCUAGGUCGACGGGUG [Fam2.2 aminoacylation ribozyme variant] , state whether its self-aminoacylation is at least 2.
Resp: Fulfilled

Req: Given AGUCACCUAGCUCAUCGGGUG [Fam2.2 aminoacylation ribozyme variant] , state whether its self-aminoacylation is at least 2.
Resp: Fulfilled

Req: Given CCACACUUCAAGCAACCGGAC [Fam1B.1 aminoacylation ribozyme variant] , state whether its self-aminoacylation is at least 2.
Resp: Not fulfilled

Req: Given CCUCAUUUCAAGCAAUCGGUC [Fam1B.1 aminoacylation ribozyme variant] , state whether its self-aminoacylation is at least 2.
Resp: Not fulfilled

---

Test system: biotinyl-Ile-oxazolone
assay: self-aminoacylation, catalytic enhancement (BIO) (fold over background); higher = more active; k-Seq, kA / k0A0; sequences stand for … in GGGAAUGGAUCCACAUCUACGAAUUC…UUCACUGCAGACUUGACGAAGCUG
Variants at the floor of the assay were thinned out.
recorded_metric: self-aminoacylation

Known self-aminoacylation results, listed for orientation:
>>> recorded_result("CUAGUUCAAACAAUCGGCCUG [Fam1A.1 aminoacylation ribozyme variant]")
1.71
>>> recorded_result("AUUCACCAAGGUCAUCGAGUG [Fam2.2 aminoacylation ribozyme variant]")
2.27
>>> recorded_result("AAGUUUGCUAAUAUUGGCAAG [Fam3.1 aminoacylation ribozyme variant]")
0.773
>>> recorded_result("CAACUUCAAACAAUCGGUAUG [Fam1A.1 aminoacylation ribozyme variant]")
1.21
>>> recorded_result("AAGUUUGCUAAGAGUUGCAAG [Fam3.1 aminoacylation ribozyme variant]")
0.797

Req: Answer with the recorded self-aminoacylation of CCACACUUCAAGCGAUCGGUC [Fam1B.1 aminoacylation ribozyme variant] only.
Resp: 0.887

Req: Answer with the recorded self-aminoacylation of CUACUUCACACAAUCGGUCUG [Fam1A.1 aminoacylation ribozyme variant] only.
Resp: 0.775

Req: Answer with the recorded self-aminoacylation of CUACUUCACACAGUCGGUCUG [Fam1A.1 aminoacylation ribozyme variant] only.
Resp: 0.65

Req: Answer with the recorded self-aminoacylation of CCACACUGCAUGCAAUCGGUC [Fam1B.1 aminoacylation ribozyme variant] only.
Resp: 0.875

Req: Answer with the recorded self-aminoacylation of AUUACCCGGGUCAUCGUGUGA [Fam2.1 aminoacylation ribozyme variant] only.
Resp: 2.6

Req: Answer with the recorded self-aminoacylation of CUACUACAAACAAUCGGUCAG [Fam1A.1 aminoacylation ribozyme variant] only.
Resp: 0.561

Req: Answer with the recorded self-aminoacylation of AUUUACCUAGUUCAUCGGGUG [Fam2.2 aminoacylation ribozyme variant] only.
Resp: 2.13

Req: Answer with the recorded self-aminoacylation of AAACACCUAGGUCAUCGGGUG [Fam2.2 aminoacylation ribozyme variant] only.
Resp: 3.41

Req: Answer with the recorded self-aminoacylation of AAGUUUGCUAUGAGUCGCAAG [Fam3.1 aminoacylation ribozyme variant] only.
Resp: 0.692

Req: Answer with the recorded self-aminoacylation of AUGAGCCUGGUCAUCGAGUGA [Fam2.1 aminoacylation ribozyme variant] only.
Resp: 3.82

Req: Answer with the recorded self-aminoacylation of CUACUUCUAACAAUCGAUCUG [Fam1A.1 aminoacylation ribozyme variant] only.
Resp: 0.674

Req: Answer with the recorded self-aminoacylation of AAGUUCGCUAAAAGUCGCAAG [Fam3.1 aminoacylation ribozyme variant] only.
Resp: 2.42

Req: Answer with the recorded self-aminoacylation of AUUCAGCUAGGUCAUUGGGUG [Fam2.2 aminoacylation ribozyme variant] only.
Resp: 2.04
